measuredMetric: melting point

For orientation, consider the following solved cases.
INSERT INTO assay_data (molecule, value) VALUES
  ('C1=C(c2nc(-c3ccccc3)no2)CCN(Cc2c[nH]c3ncccc23)C1', '207 to 209 °C'),
  ('c1ccc2[nH]c(CN3CCOCC3)nc2c1', '235 to 236 °C'),
  ('CCN(C(=O)N1CCN(c2cc(C)cc(C)c2)CC1)c1nc2ccccc2nc1OC', '145 to 147 °C'),
  ('O=Cc1cccc2c(Br)c3ccccc3cc12', '134 to 136 °C'),
  ('Cc1nnc(-c2ccc3occ(-c4ccc(S(=O)(=O)CF)cc4)c3c2)o1', '191 to 192 °C'),
  ('COc1ccc2c(=O)cc(-c3cc[nH]n3)oc2c1', '170 to 171 °C'),
  ('C=CCOc1nc2cccc(C(=O)OC)c2n1Cc1ccc(-c2ccccc2-c2nnn[nH]2)cc1', '154 to 156 °C'),
  ('CNc1n[nH]c(=O)n1N=C(C)CC(C)C', '136 °C'),
  ('COC(=O)c1cccc2c1C(Cc1ccncc1)(Cc1ccnc(F)c1)c1ccccc1-2 (stereo not given)', '144 to 146 °C'),
  ('CCOC(=O)c1c(N2CCN(C(=O)c3cccs3)CC2)c2cccnc2n(Cc2ccccc2)c1=O', '168 °C');

Below are 5 molecules. Give each one its melting point.
1. CC(=O)c1cn(S(=O)(=O)c2ccccc2)c2nccc(-c3ccccc3)c12
2. CN(C)C(=O)CC(C)(C)C(=O)O
3. O=C(c1ccc(O)cc1)c1cc(C(=O)c2ccc(O)cc2)cc([N+](=O)[O-])c1
4. COc1ccc(Cc2nc3c(cnn3C(CCCc3ccccc3)C(C)O)c(=O)[nH]2)cc1 (stereo not given)
5. CCOc1cc2c(Cl)c(C#N)cnc2cc1NC(C)=O

Output line:
1. 138 to 140 °C
2. 119 to 121 °C
3. 230 to 232 °C
4. 41 °C
5. 202 to 204 °C

====

What melting point was measured for each of the following?

The cases that follow already have their melting point on record.
INSERT INTO results (compound, value) VALUES
  ('O=C(O)C1CC2CC(CP(=O)(O)O)CCC2CN1 (configuration not stated)', '208 to 211 °C'),
  ('CCCOC(C)c1ccc(C(=O)O)cc1 (single isomer, unassigned; (+))', '56 to 58 °C');

I need melting point for every entry listed below, if you could help.
1. CCOC(=O)Cc1cnc(N=C2SCC3Cc4ccccc4CN23)s1 (configuration not stated)
2. Cc1csc(Cc2ccc(NC(=O)/C=C/c3cnn(C)c3-c3ccc(F)cc3)cc2)n1
3. O=C1C(CCO)Oc2ccccc2N1Cc1ccc([N+](=O)[O-])cc1 (configuration not stated)
4. CCCCCCCCN(CC(=O)NO)S(=O)(=O)c1ccc(C)cc1
5. CC(NC(=O)C(=O)c1c[nH]c2ccc(Br)cc12)c1c[nH]c2ccc(Br)cc12 (configuration not stated)
6. CC(C)NCC(O)COc1ccc(C2=NNC(=O)CC2)c2ccccc12 (configuration not stated)
7. N=C(Nc1ccccc1)Nc1ncccc1OCc1ccc(Cl)cc1

Output line:
132 °C
217 to 218 °C
124 to 127 °C
89 °C
141 °C
131 to 135 °C
173 to 174 °C
